// provenance: patent US10450306B2

# System Under Test: human FXR (NR1H4) (Homo sapiens)
# Sequence (Q96RI1 1-486): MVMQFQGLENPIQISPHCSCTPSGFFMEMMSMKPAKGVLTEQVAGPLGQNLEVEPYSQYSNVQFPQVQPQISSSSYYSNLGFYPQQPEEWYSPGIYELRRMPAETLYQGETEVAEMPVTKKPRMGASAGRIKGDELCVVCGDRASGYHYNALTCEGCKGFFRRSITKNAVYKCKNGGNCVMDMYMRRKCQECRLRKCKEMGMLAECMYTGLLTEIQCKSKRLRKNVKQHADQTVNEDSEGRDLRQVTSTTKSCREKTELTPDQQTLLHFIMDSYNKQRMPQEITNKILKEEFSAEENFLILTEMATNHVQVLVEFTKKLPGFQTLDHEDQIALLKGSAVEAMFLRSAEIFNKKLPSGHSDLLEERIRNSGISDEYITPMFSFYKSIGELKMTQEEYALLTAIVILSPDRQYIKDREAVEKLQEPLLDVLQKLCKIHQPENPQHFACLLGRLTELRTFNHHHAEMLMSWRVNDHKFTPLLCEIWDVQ
# Protocol: Human FXR (NR1H4) Assay: Gal4 promoter driven luciferase reporter transactivation in CHO cells (Indigo Bioscience kit IB00601)
# Condition Description: Human FXR (NR1H4) reporter assay, potency ranges
pEC50: −log10 of the molar value.
Reported Property: pEC50

// fetch pEC50 given entry O=C(NS(=O)(=O)N1CCCCC1)c1cc2sc(N3C4CCC3CC(NCc3c(-c5c(Cl)cccc5Cl)noc3C3CC3)C4)nc2cc1F (stereo not shown)
> 9.00

Please report the measured pEC50 for CCOC(=O)c1ccc2nc(N3[C@@H]4CC[C@H]3C[C@@H](NCc3c(-c5c(Cl)cccc5Cl)noc3C3CC3)C4)sc2c1
< 6.00

Write down pEC50 measured for item CC(C)Oc1cc(C(=O)NS(=O)(=O)C2CC2)cc2sc(N3CCC(NCc4c(-c5ccccc5OC(F)(F)F)noc4C4CC4)CC3)nc12
6.00 to 7.00

Given CC(C)Oc1cc(C(=O)NS(=O)(=O)N2CCCCC2)cc2sc(N3CCC(NCc4c(-c5c(Cl)cccc5Cl)noc4C4CC4)CC3)nc12 , respond with its pEC50.
7.00 to 9.00

Answer with the recorded pEC50 of O=C(NS(=O)(=O)C1CC1)c1ccc2nc(N3CCC(NCc4c(-c5c(Cl)cccc5Cl)noc4C4CC4)CC3)sc2c1 only.
7.00 to 9.00

Note down pEC50 recorded for Cc1c(C(=O)NS(=O)(=O)N2CCCCC2)ccc2nc(N3C4CCC3CC(NCc3c(-c5c(Cl)cccc5Cl)noc3C3CC3)C4)sc12 (stereo not shown)
> 9.00

Please report pEC50 for the following compound: CN(Cc1c(-c2c(Cl)cccc2Cl)noc1C1CC1)C1CCN(c2nc3ccc(C(=O)O)cc3s2)CC1
< 6.00

Quickly give me recorded pEC50 for CC1(S(=O)(=O)NC(=O)c2cc3sc(N4C5CCC4CC(NCc4c(-c6c(Cl)cccc6Cl)noc4C4CC4)C5)nc3c3ccccc23)CC1 (stereo not shown)
> 9.00

Provide pEC50 value for the following compound: O=C(NS(=O)(=O)N1CCCC1)c1ccc2nc(N3C4CCC3CC(NCc3c(-c5c(Cl)cccc5Cl)noc3C3CC3)C4)sc2c1 (stereo not shown)
> 9.00

Please give measured pEC50 of the following entry: CC1(S(=O)(=O)NC(=O)c2cc(C3CC3)c3nc(N4C5CCC4CC(NCc4c(-c6c(Cl)cccc6Cl)noc4C4CC4)C5)sc3c2)CC1 (stereo not shown)
7.00 to 9.00

Please report the measured pEC50 for COc1cc(C(=O)NCC(=O)O)cc2sc(N3C4CCC3CC(NCc3c(-c5c(Cl)cccc5Cl)noc3C3CC3)C4)nc12 (stereo not shown)
7.00 to 9.00

Given the compound CC(C)(C)OC(=O)CNC(=O)c1cc(F)c2nc(N3C4CCC3CC(NCc3c(-c5c(Cl)cccc5Cl)noc3C3CC3)C4)sc2c1 (stereo not shown) , write its reported pEC50.
7.00 to 9.00

Return the recorded pEC50 value; entry: O=C(O)c1cc(F)c2nc(N3CCC(NCc4c(-c5c(Cl)cccc5Cl)noc4C4CC4)CC3)sc2c1
7.00 to 9.00

====

# System Under Test: human FXR (NR1H4) (Homo sapiens, UniProt Q96RI1)
# Protocol: Human FXR (NR1H4) Assay: Gal4 promoter driven luciferase reporter transactivation in CHO cells (Indigo Bioscience kit IB00601)
# Condition Description: Human FXR (NR1H4) reporter assay, potency ranges
Reported Property: EC50

Look up EC50 of COC(=O)c1ccc2cc(N3[C@@H]4CC[C@H]3C[C@@H](NCc3c(-c5c(Cl)cccc5Cl)noc3C3CC3)C4)ccc2c1 and report it.
1 to 100 nM

Name the recorded EC50 of the molecule listed here: COC(=O)c1ccc2nc(N3C4CCC3CC(N(C)Cc3c(-c5c(Cl)cccc5Cl)noc3C3CC3)C4)sc2c1 (stereo not shown)
100 to 1000 nM

Read the entry O=C(NS(=O)(=O)N1CCCC1)c1cc(F)c2nc(N3CCC(NCc4c(-c5c(Cl)cccc5Cl)noc4C4CC4)CC3)sc2c1 and write its reported EC50.
1 to 100 nM

Hello, please tell me recorded EC50 for this one: O=C(NS(=O)(=O)C1CC1)c1cnc2nc(N3C4CCC3CC(NCc3c(-c5ccccc5OC(F)(F)F)noc3C3CC3)C4)sc2n1 (stereo not shown)
1 to 100 nM

Annotate the molecule O=C(O)c1cc(C2CC2)c2nc(N3C4CCC3CC(NCc3c(-c5ccccc5OC(F)(F)F)noc3C3CC3)C4)sc2c1 (stereo not shown) with its measured EC50.
< 1 nM

// Input: Cc1cc(C(=O)O)cc2sc(N3C4CCC3CC(NCc3c(-c5ccccc5C(F)(F)F)noc3C3CC3)C4)nc12 (stereo not shown) . Output its EC50 only.
1 to 100 nM

Specify reported EC50 for the molecule shown: CCOC(=O)c1ccc2nc(N3[C@@H]4CC[C@H]3C[C@@H](N(C)Cc3c(-c5c(Cl)cccc5Cl)noc3C3CC3)C4)sc2c1
1 to 100 nM

Answer with the recorded EC50 for the molecule listed here: CCOc1cc(C(=O)O)cc2sc(N3C4CCC3CC(NCc3c(-c5c(Cl)cccc5Cl)noc3C3CC3)C4)nc12 (stereo not shown)
< 1 nM

Specify measured EC50 for COC(=O)c1ccc2nc(N3C4CCC3CC(NCc3c(-c5c(Cl)cccc5Cl)noc3C3CC3)C4)sc2c1-c1ccccc1 (stereo not shown) .
1 to 100 nM

Using known records, supply EC50 for Fc1cc(-c2nn[nH]n2)ccc1N1C2CCC1CC(NCc1c(-c3c(Cl)cccc3Cl)noc1C1CC1)C2 (stereo not shown)
< 1 nM

Report EC50 for CC1(S(=O)(=O)NC(=O)c2cc(F)c3nc(N4CCC(NCc5c(-c6ccccc6OC(F)(F)F)noc5C5CC5)CC4)sc3c2)CC1
> 1000 nM

Give the reported EC50 for this molecule. CC(C)Oc1cc(C(=O)NS(=O)(=O)C2CC2)cc2sc(N3CCC(NCc4c(-c5c(Cl)cccc5Cl)noc4C4CC4)CC3)nc12
1 to 100 nM

Please give the documented EC50 of CC1(S(=O)(=O)NC(=O)c2ccc3nc(N4C5CCC4CC(NCc4c(-c6ccccc6OC(F)(F)F)noc4C4CC4)C5)sc3c2)CC1 (stereo not shown)
1 to 100 nM

====

Field: Emax. Provide a value for each of the compounds that follow.
# System Under Test: human FXR (NR1H4) (Homo sapiens, UniProt Q96RI1)
# Construct: host or cells: CHO (Chinese hamster ovary) reporter cells
# Protocol: Human FXR (NR1H4) Assay: Gal4 promoter driven luciferase reporter transactivation in CHO cells (Indigo Bioscience kit IB00601)
# Format: cell-based
# Condition Description: CHO; read-out: Efficacy (%)
Answer in %, number only, no unit symbol.

Quickly give me recorded Emax for COC(=O)c1cc(C2CC2)c2nc(N3C4CCC3CC(NCc3c(-c5ccccc5C(F)(F)F)noc3C3CC3)C4)sc2c1 (stereo not shown)
52

Note Emax for the compound shown: Cc1cc(C(=O)O)cc2sc(N3C4CCC3CC(NCc3c(-c5ccccc5C(F)(F)F)noc3C3CC3)C4)nc12 (stereo not shown)
125

Using the record for O=C(NS(=O)(=O)C1CC1)c1ccc2nc(N3CCC(NCc4c(-c5c(Cl)cccc5Cl)noc4C4CC4)CC3)sc2c1 , state its measured Emax.
171

Note Emax for the compound shown: CC1(S(=O)(=O)NC(=O)c2ccc3nc(N4C5CCC4CC(NCc4c(C6CCC7(CC6)CC7)noc4C4CC4)C5)sc3c2)CC1 (stereo not shown)
85.5

Give a short answer stating reported Emax for COC(=O)c1ccc2nc(N3C4CCC3CC(NCc3c(-c5c(Cl)cccc5Cl)noc3C3CC3)C4)c(Cl)nc2c1 (stereo not shown) .
58

Respond only with Emax recorded for CCOC(=O)c1ccc2nc(N3[C@@H]4CC[C@H]3C[C@@H](NCc3c(-c5c(Cl)cccc5Cl)noc3C3CC3)C4)sc2c1
74

# return recorded Emax for input O=C(O)c1cc(C2CC2)c2nc(N3C4CCC3CC(NCc3c(-c5c(Cl)cccc5Cl)noc3C3CC3)C4)sc2c1 (stereo not shown)
108

Using known records, supply Emax for CCOC(=O)c1ccc2nc(N3C4CCC3CC(NCc3c(-c5ccccc5OC(F)(F)F)noc3C3CC3)C4)sc2c1 (stereo not shown)
59.1

Give the reported Emax for this compound. O=C(O)c1ccc2nc(N3C4CCC3CC(NCc3c(-c5ccccc5OC(F)(F)F)noc3C3CC3)C4)sc2c1 (stereo not shown)
112

Hello, please tell me recorded Emax for this one: O=C(O)c1cc2sc(N3C4CCC3CC(NCc3c(-c5c(Cl)cccc5Cl)noc3C3CC3)C4)nc2cc1-c1ccccc1 (stereo not shown)
96.2

Output Emax of CN(Cc1c(-c2c(Cl)cccc2Cl)noc1C1CC1)[C@H]1C[C@H]2CC[C@@H](C1)N2c1nc2ccc(C(=O)NS(=O)(=O)C3(C)CC3)cc2s1
92

Return reported Emax. Input compound: O=C(O)c1ccc2nc(N3C4CCC3CC(NCc3c(-c5ccccc5OC(F)(F)F)noc3C3CC3)C4)ccc2c1 (stereo not shown)
100

Report Emax for O=C(O)c1cc(OC(F)F)c2nc(N3[C@@H]4CC[C@H]3C[C@@H](NCc3c(-c5c(Cl)cccc5Cl)noc3C3CC3)C4)sc2c1
96
